# target_entity: T1, human TNFR1 (recombinant, R&D Systems cat no. 636-R1/CF, biotinylated) (human, UniProt P19438 30-211, limits assumed, biotinylated with EZ-Link NHS-LC-LC-biotin)
# T1 construct: it is not tied to the BIAcore reagent; also called p55; hTNFR1
# T1 sequence (looked up): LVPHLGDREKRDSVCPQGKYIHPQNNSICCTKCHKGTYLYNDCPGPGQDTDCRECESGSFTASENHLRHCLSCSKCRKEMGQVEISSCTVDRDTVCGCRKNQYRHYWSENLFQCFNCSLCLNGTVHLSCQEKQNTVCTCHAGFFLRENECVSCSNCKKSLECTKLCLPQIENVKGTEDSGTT
# assay_notes: BIAcore, human TNFR1 on SA chip
Listing: kon of selected binders
Supply the numeric figure in M⁻¹ s⁻¹, leaving out any unit text.

# example entries with known answers
binder: DOM1h-574-162 (other, VH dAb) VH: EVQLLESGGGLVQPGGSLRLSCAASGFTFFKYSMGWVRQAPGKGLEWVSQISDTADRTYYSHSVKGRFTISRDNSKNTLYLQMNSLRAEDTAVYYCAIYTGRWVPFEYWGQGTLVTVSS
kon [M⁻¹ s⁻¹]: 290000
--
binder: DOM1h-574-155 (other, VH dAb) VH: EVQLLESGGGLVQPGGSLRLSCAASGFTFLKYSMGWVRQAPGKGLEWVSQISDTADRTYYAHSVKGRFTISRDNSKNTLYLQMNSLRAEDTAVYYCAIYTGRWVPFEYWGQGTLVTVSS
kon [M⁻¹ s⁻¹]: 240000
--
binder: DOM1h-574-109 (other, VH dAb) VH: EVQLLESGGGLVQPGGSLRLSCAASGFTFVKYSMGWVRQAPGKGLEWVSQISDTADRTYYAHSVKGRFTISRDNSKNTLYLQMNSLRAEDTAVYYCAIYTGRWVPFEYWGQGTLVTVSS
kon [M⁻¹ s⁻¹]: 240000

Query DOM1h-574-139 (other, VH dAb) VH: EVQLLESGGGLVQPGGSLRLSCAASGFTFLKYSMGWVRQAPGKGLEWVSQISDTADRTYYAHSVKGRFTISRDNSKNTLYLQMNSLRAEDTAVYYCAIYTGRWAPFEYWGQGTLVTVSS yields kon of 140000
